test: yeast display, Sf9 membrane polyspecificity reagent, FACS + sequencing; frameworks hold sequencing errors

# residue.codes, polyreactivity (PSR sort gate)
records = [
    ("QVQLVQSGGGLVQAGGSLRLSCAASGRTFGRYAMGWYRQAPGKERELVAAINRGGSTKYADSVQGRFTISRDNAKNTVYLQMNSLKPEDTAVYYCAKDRHPALLYDYWGQGTEVTVSS", "low polyreactivity"),
    ("QVQLVESGGGLVQAGGSLRLSCAASALTFHFNAMGWYRQAPGKERELVASITSSGGSTYYADSVKGRFTISRDNAKNTVSLQMNSLKPEDTAVYYCNAEGSSVLTGYWGYPPYWDTYDYSGQGTQVTVSS", "low polyreactivity"),
]

---

test: yeast display, Sf9 membrane polyspecificity reagent, FACS + sequencing; frameworks hold sequencing errors
property.measured: polyreactivity (PSR sort gate)

# residue.codes, result
rows = [
    ("QVQLVESGGGLVQAGGSLRLSCAASGSTLYWYAMGWYRQAPGKERELVASISWSGGSTYYADSVKGRFTISRDNAKITVYLQMNSLKPEDTAVYYCDAVRHYHGTWYDYWGEGTQVTVSS", "high polyreactivity"),
    ("QVQLVESGGGLVQAGGSLRLSCAASGSIFNYYAMGCYRQAPGKERELVAAIETTGGSTYYADSVKGRFTNSRDNAKNTVYLQMNSLKPEDTAVYYCAATWGKPWYYEYDYWGQGTQVTVSS", "low polyreactivity"),
    ("QVQLVESGGGLVQAGGSLRLSCSASGRIFSLYAMGWYRQAPGKESELVAAITWSSGSTYYADSVKGRFTISRDNAKNTVYLQMNSLKPEDTAVYYCDARVFTLLGYSYEYWGEGTQVTVSS", "low polyreactivity"),
    ("QVQLVESGGGLVQAGGSLRLSCAASGRTFGYYAMGWYRQAPGKERELVAAINSRGGSTYYADSVKGRFTISRDNAKNTVYLQMNSLKPEDTAVYYCAVVRWRQYIFATYDYWGQGTQVTVSS", "high polyreactivity"),
    ("QVQLVESGGGLVQAGGSLRLSCAASGLIFLWYVMGWYRQAPGKEREFVAAISWNGGGTYYADSVKGRFTISRDNAKNTVYLQMNSLKPDDTAVYYCAAQTYSNDYWGQGTQVTVSS", "low polyreactivity"),
]

Asked: Name the recorded polyreactivity (PSR sort gate) for QVQLVESGGGLVQAGGSLSLSCAASGRTFYTNAMGSSRQAPGKERELVAAISLRDVNTYYADSVKGRFTISRDNAKNTVYLQMNSLKPEDTAVYYCAARSRRRFDWGQGTQVTVSS .
Given back: high polyreactivity

---

experiment: yeast display, Sf9 membrane polyspecificity reagent, FACS + sequencing; frameworks hold sequencing errors

# residue.codes, polyreactivity (PSR sort gate)
data = [
    ("QVQIEESGGVLVQAGGSLRLSCAASGSIFQPYALGWYRQAPGKERELVAAISSSGGSTTYADSVKGRFTISRDIAKNTVYLQMNSLKPEDTAVYYCAADSADDMGYWGQGTQVTVSS", "low polyreactivity"),
    ("QVQLVESGGGLVQAGGSLRLSCAASGRIFYVYSMGWYRQAPGKDRELVADISRGGSTNYADSVKGRFTISRDNAKNTVYLQMNSLKPEDTAVYYCNTDGLWSAEYDYWGQGTQVTVSS", "low polyreactivity"),
]

---

assay: yeast display, Sf9 membrane polyspecificity reagent, FACS + sequencing; frameworks hold sequencing errors

# residue.codes, polyreactivity (PSR sort gate)
data = [
    ("QVQLVESGGGLVQAGGSLRLSCAASGRTSGFNTMGWYRQAPGKERELVAAISFSGGSTYYADSVKGRFTISRDNAKNTGYLQMNSLKPEDTAVYYCAAELERDEEYDYWGQGTQVTVSS", "low polyreactivity"),
    ("QVQLEESGGGLVQAGGRLRLSCAASGRTFSTYAMGWYRQATGKERELVAAITRRGGSTSYADSVKGRFTISRDNANNTVYLQMNSLNPEDTAVYYCARENPGDSYYDYWGQGTQVTVSS", "low polyreactivity"),
    ("QVQLVESGGGLVQAGGSLRLSCAASGFTFDGYAMGWYRQAPGKERELVAAIRRSGASTYYADSVKGRFTISRDNAKNTVYLHMNSLKPEDTAVYYCNATRNYEPRYSSFTLRGYYWGQGTQVTVSS", "low polyreactivity"),
]
